target: Concanavalin-A (Canavalia ensiformis) (UniProt P02866); assay: compounds binding concanavalin A lectin – biochemical, small-molecule microarray, Alexa647 label, 635 nm, artefact control for SMM control protein annotation, primary screen (AID 1127); conditions: ConA-A647 binding fluorescence, higher = more signal;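 further: z combines 667 nm emission intensity with signal-to-noise across three replicate slides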
Sequence (P02866 whole entry, looked up): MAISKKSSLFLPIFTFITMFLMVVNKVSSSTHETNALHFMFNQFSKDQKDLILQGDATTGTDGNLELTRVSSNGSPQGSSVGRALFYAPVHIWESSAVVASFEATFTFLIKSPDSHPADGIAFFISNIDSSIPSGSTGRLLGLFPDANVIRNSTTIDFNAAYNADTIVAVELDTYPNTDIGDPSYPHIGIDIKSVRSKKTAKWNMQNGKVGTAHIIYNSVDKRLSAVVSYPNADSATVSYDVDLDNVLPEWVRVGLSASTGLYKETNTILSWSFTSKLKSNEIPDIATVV
Measured composite z-score, listed per entry.

Compound: COC(=O)[C@@]1(Cc2ccc(F)cc2)[C@H]2c3cc(C(=O)N(C)C)n(Cc4ccc(OC(F)(F)F)cc4)c3C[C@H]2CN1C(=O)c1ccccc1
composite z-score: 0.296

Compound: COCC(=C=CC[C@H](O)c1ccc(OCCO)cc1)CCO
composite z-score: -0.155

Compound: CCCC1(C(=O)OC)C=C2C(=C(C)C(=O)C2C)CN1 (stereo unspecified)
composite z-score: -2.2

Compound: COc1ccc(C(=O)Nc2ccc(CN3C(=O)[C@]4(O[C@H](CC(=O)N5Cc6ccccc6C[C@H]5CO)[C@@H]([Si](C)(C)c5ccc(OC)cc5)[C@@H]4C)c4ccccc43)cc2)cc1
composite z-score: 0.67

Compound: CCC#CCN(Cc1ccccc1Br)[C@H](/C=C/C1CC1)[C@@H](O)Cc1ccccc1
composite z-score: -0.138

Compound: COc1ccc([Si](C)(C)[C@@H]2[C@@H](CC(=O)N3CCC[C@H]3CO)O[C@]3(C(=O)N(Cc4cccc(N5C(=O)COc6ccccc65)c4)c4ccccc43)[C@H]2C)cc1
composite z-score: 1.12

----------
test: budding yeast growth changes without added modifier – OD600, strain BY4716, 24 h, basal condition, primary screen (AID 1173); details: S. cerevisiae BY4716 growth, OD600, 24 h; higher = more signal, called active from +8 up or from −8 down
Measured z-score, listed per entry.
Measured Metric: z-score

Compound: [N-]=[N+]=Nc1ccccc1C[C@@]1(C(N)=O)N=C(c2ccc(OCCCO)cc2)O[C@@H]1c1ccccc1N=[N+]=[N-]
Measured Metric: z-score
Obs Value: -3.3
//
Compound: CC1CC/C=C\[C@H]2OC34C=CCN(c5ccc6ccccc6c5)C(=O)[C@H]3N(CCCO)C(=O)[C@@H]4C2C(=O)O1 (some centres not stated)
Measured Metric: z-score
Obs Value: 0.723
//
Compound: COCC(=C=CC[C@H](O)c1ccc(CO)o1)CCO
Measured Metric: z-score
Obs Value: -1.63
//
Compound: CC(=O)N1CC2(CC2)CC1c1ccccc1 (configuration not stated)
Measured Metric: z-score
Obs Value: 1.12
//
Compound: C=C(COC)/C(=C/C[C@H](OC(=O)c1ccncc1)c1ccccc1OCCO)c1cc(C(=O)OC)ccc1OC
Measured Metric: z-score
Obs Value: -0.0515
//
Compound: CC(C)(C)OC(=O)COc1cccc(C(=O)CCN2CCOCC2)c1
Measured Metric: z-score
Obs Value: -10.3
//
Compound: [N-]=[N+]=Nc1ccccc1C[C@]1(C(=O)O)COC(c2ccc(OCCCO)cc2)=N1
Measured Metric: z-score
Obs Value: -0.231
//
Compound: C#Cc1cc2ccccc2oc1=O
Measured Metric: z-score
Obs Value: -5.07
//
Compound: O=C1C2C=CC(C(O)c3cccc(O)c3)N(Nc3ccc([N+](=O)[O-])cc3)C2C(=O)N1c1ccccc1 (configuration not stated)
Measured Metric: z-score
Obs Value: 0.661
//
Compound: C#CCN([C@@H](Cc1ccccc1)C(=O)OC)[C@@H](/C=C/C1CC1)[C@H](O)Cc1ccccc1
Measured Metric: z-score
Obs Value: -0.0746
//
Compound: CC(C)[Si](C#CCCCC#N)(O[C@H](c1ccccc1)c1cn(Cc2ccccc2)nn1)C(C)C
Measured Metric: z-score
Obs Value: -6.51
//
Compound: CC[C@@H]1C=C(C(=O)O)[C@H](c2ccccc2)N1S(=O)(=O)c1ccc(C)cc1
Measured Metric: z-score
Obs Value: 0.34
//
Compound: COc1ccc([Si](C)(C)[C@@H]2[C@@H](CC(=O)N(CCO)Cc3ccccc3)O[C@]3(C(=O)N(Cc4cccc(N5CCCCC5=O)c4)c4ccccc43)[C@H]2C)cc1
Measured Metric: z-score
Obs Value: 0.594
//
Compound: CO[C@H]1O[C@H](CO)[C@@H](OC(=O)Nc2ccc(Br)cc2)[C@@H]2OC(=O)[C@@H](Cc3ccccc3)C/C=C/C[C@H](Cc3ccccc3)C(=O)O[C@@H]12
Measured Metric: z-score
Obs Value: -0.0671
//
Compound: CN(C)CCCCCCNC(=O)[C@@H]1C[C@@H]2C(=O)N3CCC[C@H]3C(=O)N2[C@@H]1c1cccc(OCCO)c1
Measured Metric: z-score
Obs Value: 0.451
//
Compound: COC(=O)[C@@]1(Cc2ccc(OC)cc2)[C@H]2c3cc(C(=O)N(C)C)n(Cc4ccc(C)o4)c3C[C@H]2CN1C(=O)c1ccccc1
Measured Metric: z-score
Obs Value: 0.256
//
Compound: C=CCC(OC(C)=O)[C@@H]1[C@@H](N(Cc2cc3ccccc3o2)C(=O)Cc2ccc(F)cc2)c2cc(OCCCO)ccc2N1C(=O)Cc1ccc2ccccc2c1 (some centres not stated)
Measured Metric: z-score
Obs Value: -0.0417
